tested on: Streptococcus pneumoniae; assay: Antibacterial activity against penicillin-resistant Streptococcus pneumoniae PR44 by agar dilution method; assay type: functional
readoutLabel: MIC (µg/mL)
Unit µg/mL implied. Number only.

N#C[C@]1(c2ccc(-c3ccc(N4C[C@H](Cn5ccnn5)OC4=O)cc3F)cn2)[C@@H]2CNC[C@@H]21: 0.06
N#C[C@]1(c2ccc(-c3ccc(N4C[C@H](Cn5ccnn5)OC4=O)cc3)cn2)[C@@H]2CS(=O)(=O)C[C@@H]21: 0.06
N#C[C@]1(c2ccc(-c3c(F)cc(N4C[C@H](Cn5ccnn5)OC4=O)cc3F)cn2)[C@@H]2CS(=O)(=O)C[C@@H]21: 0.06

Which measured MIC value corresponds to N#C[C@]1(c2ccc(-c3c(F)cc(N4C[C@H](Cn5ccnn5)OC4=O)cc3F)cn2)[C@@H]2CSC[C@@H]21 ? 0.25

Consider the compound N#C[C@]1(c2ccc(-c3ccc(N4C[C@H](Cn5ccnn5)OC4=O)cc3)cn2)[C@@H]2CSC[C@@H]21 and give its measured MIC. 0.06

I am curious: what MIC value has been reported for NC[C@]1(c2ccc(-c3ccc(N4C[C@H](Cn5ccnn5)OC4=O)cc3F)cn2)[C@@H]2CNC[C@@H]21 ? 8

Using the record for NC(=O)[C@]1(c2ccc(-c3ccc(N4C[C@H](Cn5ccnn5)OC4=O)cc3F)cn2)[C@@H]2CNC[C@@H]21 , report its MIC. 0.5

###

# Lookup of reported MIC keyed by entry
test system: Staphylococcus aureus; experiment: Antibacterial activity against methicillin-sensitive Staphylococcus aureus Smith by agar dilution method; assay type: functional
# output: bare number, implied unit µg/mL

N#C[C@]1(c2ccc(-c3c(F)cc(N4C[C@H](Cn5ccnn5)OC4=O)cc3F)cn2)[C@@H]2C[S+]([O-])C[C@@H]21 (some centres undefined): 0.06
N#CN1C[C@@H]2[C@H](C1)[C@@]2(C#N)c1ccc(-c2ccc(N3C[C@H](Cn4ccnn4)OC3=O)cc2F)cn1: 0.06
N#C[C@]1(c2ccc(-c3ccc(N4C[C@H](Cn5ccnn5)OC4=O)cc3F)cn2)[C@@H]2CS(=O)(=O)C[C@@H]21: 0.06

Looking for the measured MIC of CCC(=O)NC[C@H]1CN(c2ccc(-c3ccc([C@@]4(C#N)[C@@H]5CNC[C@@H]54)nc3)c(F)c2)C(=O)O1 , can you help? 0.25

MIC for N#C[C@]1(c2ccc(-c3c(F)cc(N4C[C@H](Cn5ccnn5)OC4=O)cc3F)cn2)[C@@H]2CSC[C@@H]21 ? 0.06

Given the compound N#C[C@]1(c2ccc(-c3ccc(N4C[C@H](Cn5ccnn5)OC4=O)cc3F)cc2)[C@@H]2CNC[C@@H]21 , what is its reported MIC? 0.125

###

Measured MIC by item
tested on: Staphylococcus aureus; test: Antibacterial activity against methicillin-sensitive Staphylococcus aureus Smith by agar dilution method; type: functional
Kindly provide the numeric value in µg/mL only, without the unit symbol.

COC(=O)NC[C@H]1CN(c2ccc(-c3ccc([C@@]4(C#N)[C@@H]5CNC[C@@H]54)nc3)c(F)c2)C(=O)O1: 0.125
N#C[C@]1(c2ccc(-c3ccc(N4C[C@H](Cn5ccnn5)OC4=O)cc3F)cn2)[C@@H]2CNC[C@@H]21: 0.06
N#Cc1ccc(N2C[C@@H]3[C@H](C2)[C@@]3(C#N)c2ccc(-c3ccc(N4C[C@H](Cn5ccnn5)OC4=O)cc3F)cn2)nc1: 0.06
N#C[C@]1(c2ccc(-c3ccc(N4C[C@H](Cn5ccnn5)OC4=O)cc3)cn2)[C@@H]2COC[C@@H]21: 0.06

If you can, please state the reported MIC value of N#C[C@]1(c2ccc(-c3ccc(N4C[C@H](Cn5ccnn5)OC4=O)cc3F)cn2)[C@@H]2C[S+]([O-])C[C@@H]21 (stereo partly specified) . 0.06

I have this molecule here, N#C[C@]1(c2ccc(-c3ccc(N4C[C@H](Cn5ccnn5)OC4=O)cc3)cn2)[C@@H]2C[S+]([O-])C[C@@H]21 (stereo partly specified) , and I need its recorded MIC. 0.125

###

# MIC per entry
test system: Streptococcus pneumoniae; test: Antibacterial activity against penicillin-resistant Streptococcus pneumoniae PR44 by agar dilution method; type: functional
Please reply with the bare figure in µg/mL and do not write the unit itself.

Worked cases, MIC given:
N#CN1C[C@@H]2[C@H](C1)[C@@]2(C#N)c1ccc(-c2ccc(N3C[C@H](Cn4ccnn4)OC3=O)cc2F)cn1: 0.06
N#C[C@]1(c2ccc(-c3c(F)cc(N4C[C@H](Cn5ccnn5)OC4=O)cc3F)cn2)[C@@H]2CNC[C@@H]21: 0.125
N[C@]1(c2ccc(-c3ccc(N4C[C@H](Cn5ccnn5)OC4=O)cc3F)cn2)[C@@H]2CNC[C@@H]21: 0.5

Would you kindly look at the next entry?
Give its MIC value. Item: N#C[C@]1(c2ccc(-c3ccc(N4C[C@H](Cn5ccnn5)OC4=O)cc3F)cc2F)[C@@H]2CNC[C@@H]21 0.25

###

system: Haemophilus influenzae; assay: Antibacterial activity against Haemophilus influenzae IID983 by agar dilution method; format: functional
readoutLabel: MIC (µg/mL)
Supply the numeric figure in µg/mL, leaving out any unit text.

NC[C@]1(c2ccc(-c3ccc(N4C[C@H](Cn5ccnn5)OC4=O)cc3F)cn2)[C@@H]2CNC[C@@H]21: 128
N#C[C@]1(c2ccc(-c3c(F)cc(N4C[C@H](Cn5ccnn5)OC4=O)cc3F)cn2)[C@@H]2CS(=O)(=O)C[C@@H]21: 4

Please give the measured MIC for this compound: CN1C[C@@H]2[C@H](C1)[C@@]2(C#N)c1ccc(-c2ccc(N3C[C@H](Cn4ccnn4)OC3=O)cc2F)cn1 4

Form field: reported MIC of CCC(=O)NC[C@H]1CN(c2ccc(-c3ccc([C@@]4(C#N)[C@@H]5CNC[C@@H]54)nc3)c(F)c2)C(=O)O1 8

Name the reported MIC value associated with the compound CC(=O)NC[C@H]1CN(c2ccc(-c3ccc([C@@]4(C#N)[C@@H]5CNC[C@@H]54)nc3)c(F)c2)C(=O)O1 4

Consider the compound shown here: N#C[C@]1(c2ccc(-c3ccc(N4C[C@H](CNC(=O)C5CC5)OC4=O)cc3F)cn2)[C@@H]2CNC[C@@H]21 What is its recorded MIC? 8

I would be grateful if you could share the reported MIC for N#C[C@]1(c2ccc(-c3ccc(N4C[C@H](Cn5ccnn5)OC4=O)cc3)cn2)[C@@H]2CS(=O)(=O)C[C@@H]21 . 4

###

tested on: Haemophilus influenzae; assay: Antibacterial activity against Haemophilus influenzae IID983 by agar dilution method; type: functional
# MIC annotations

N#C[C@]1(c2ccc(-c3c(F)cc(N4C[C@H](Cn5ccnn5)OC4=O)cc3F)cn2)[C@@H]2CSC[C@@H]21: > 16 mg/L
N#C[C@]1(c2ccc(-c3ccc(N4C[C@H](Cn5ccnn5)OC4=O)cc3)cn2)[C@@H]2CSC[C@@H]21: 8 mg/L
COC(=S)NC[C@H]1CN(c2ccc(-c3ccc([C@@]4(C#N)[C@@H]5CNC[C@@H]54)nc3)c(F)c2)C(=O)O1: 0.5 mg/L

// switching to the query compound
Bench note: what MIC did N#C[C@]1(c2ccc(-c3ccc(N4C[C@H](Cn5ccnn5)OC4=O)cc3)cn2)[C@@H]2CNC[C@@H]21 show? 2 mg/L

###

system: Streptococcus pneumoniae; test: Antibacterial activity against penicillin-resistant Streptococcus pneumoniae PR44 by agar dilution method; assay type: functional
readoutLabel: MIC

CN1C[C@@H]2[C@H](C1)[C@@]2(C#N)c1ccc(-c2ccc(N3C[C@H](Cn4ccnn4)OC3=O)cc2F)cn1: 0.06 µg/mL

Given the compound N#Cc1ccc(N2C[C@@H]3[C@H](C2)[C@@]3(C#N)c2ccc(-c3ccc(N4C[C@H](Cn5ccnn5)OC4=O)cc3F)cn2)nc1 , what is its reported MIC? 0.06 µg/mL

What does the data say about its MIC? Entry: N#C[C@]1(c2ccc(-c3ccc(N4C[C@H](CNC(=O)C5CC5)OC4=O)cc3F)cn2)[C@@H]2CNC[C@@H]21 0.25 µg/mL

###

The entries below come with measured MIC values attached.
test system: Streptococcus pneumoniae; assay: Antibacterial activity against penicillin-resistant Streptococcus pneumoniae PR44 by agar dilution method; format: functional
Give the value in µg/mL but do not write µg/mL after it.

Some solved cases for reference:
N#C[C@]1(c2ccc(-c3ccc(N4C[C@H](CNC(=O)C(F)F)OC4=O)cc3F)cn2)[C@@H]2CNC[C@@H]21: 0.06
N#C[C@]1(c2ccc(-c3ccc(N4C[C@H](Cn5ccnn5)OC4=O)cc3F)cn2)[C@@H]2C[S+]([O-])C[C@@H]21 (stereo not given in full): 0.06
COC(=O)NC[C@H]1CN(c2ccc(-c3ccc([C@@]4(C#N)[C@@H]5CNC[C@@H]54)nc3)c(F)c2)C(=O)O1: 0.125

Would you mind telling me what MIC value was observed for N#C[C@]1(c2ccc(-c3c(F)cc(N4C[C@H](Cn5ccnn5)OC4=O)cc3F)cn2)[C@@H]2COC[C@@H]21 ? 0.125

Consider the compound CCC(=O)NC[C@H]1CN(c2ccc(-c3ccc([C@@]4(C#N)[C@@H]5CNC[C@@H]54)nc3)c(F)c2)C(=O)O1 and give its measured MIC. 0.125
